meta.source: PubChem BioAssay AID1159580

Reported normalized growth is given for each of the following compounds.
Measurement description: chemical genetic growth profiling, strain panel (AID 1159580);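 further: tested at 20 µM; growth read once vehicle control cultures reached saturation at 30 °C; 1 = growth at the plate median or of vehicle wells; lower values mean less growth of the strain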
Stated conditions: S. cerevisiae deletion strains, growth OD, locus YDL108W, strain KIN28, hits give low values
The whole screen tested about 5,500 compounds, of which about 2,000 (36%) were called active. Another 18% or so got no clear call; they are omitted. Some of the results follow.
Experimental endpoint: normalized growth

[[record]]
compound = "COc1ccc(C2CC(c3ccc(C)cc3C)=NN2C(C)=O)cc1 (stereo not given)"
numeric_result = 0.977

[[record]]
compound = "N#C/C(=N/Nc1cccc(C(F)(F)F)c1)C(=O)c1csc(-c2cccnc2)n1"
numeric_result = 0.963

[[record]]
compound = "FC(F)(F)c1cc(-c2ccc(Cl)cc2)n[nH]1"
numeric_result = 0.925

[[record]]
compound = "CN1c2ccccc2C(C)(C)C12C=Cc1cc(O)ccc1O2 (stereo not given)"
numeric_result = 0.974

[[record]]
compound = "CS/C(Nc1cccc(C(F)(F)F)c1)=C(/C#N)S(=O)(=O)c1ccc(Cl)cc1"
numeric_result = 0.949

